target desc: T1, CAPRIN-1 protein expressed on the membrane surface of human cancer cells (human, UniProt Q14444 2-709)
T1 sequence (looked up): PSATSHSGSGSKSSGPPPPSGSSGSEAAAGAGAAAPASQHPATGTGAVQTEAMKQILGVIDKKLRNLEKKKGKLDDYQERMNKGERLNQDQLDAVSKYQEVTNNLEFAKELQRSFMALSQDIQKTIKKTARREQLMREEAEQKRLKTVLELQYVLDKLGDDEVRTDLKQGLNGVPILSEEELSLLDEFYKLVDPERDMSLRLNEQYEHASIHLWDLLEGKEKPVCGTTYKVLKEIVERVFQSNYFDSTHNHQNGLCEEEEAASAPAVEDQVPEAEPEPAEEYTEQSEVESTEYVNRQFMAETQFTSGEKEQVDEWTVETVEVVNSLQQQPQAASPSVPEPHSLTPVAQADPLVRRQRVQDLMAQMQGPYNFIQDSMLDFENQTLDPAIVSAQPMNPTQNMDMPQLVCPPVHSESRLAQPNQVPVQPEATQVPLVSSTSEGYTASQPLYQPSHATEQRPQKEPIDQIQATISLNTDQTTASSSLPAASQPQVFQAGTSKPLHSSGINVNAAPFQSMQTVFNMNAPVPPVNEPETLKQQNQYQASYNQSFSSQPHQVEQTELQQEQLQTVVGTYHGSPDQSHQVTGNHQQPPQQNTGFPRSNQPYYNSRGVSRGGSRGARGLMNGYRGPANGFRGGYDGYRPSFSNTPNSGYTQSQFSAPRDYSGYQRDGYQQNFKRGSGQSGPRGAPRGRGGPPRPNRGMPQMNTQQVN
experiment summary: cell-based or functional assay
measure name: ADCC cytotoxic activity (51Cr release) on HT-1376

Given the binder humanized antibody #6 (antibody, V domains shown) VH: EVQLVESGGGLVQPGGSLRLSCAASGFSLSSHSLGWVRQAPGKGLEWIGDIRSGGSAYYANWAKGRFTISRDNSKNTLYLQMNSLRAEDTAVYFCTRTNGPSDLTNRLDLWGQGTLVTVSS VL: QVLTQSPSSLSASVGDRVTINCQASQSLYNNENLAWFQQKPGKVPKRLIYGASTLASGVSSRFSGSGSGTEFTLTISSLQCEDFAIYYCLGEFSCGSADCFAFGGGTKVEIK , what is its reported ADCC cytotoxic activity (51Cr release) on HT-1376?
≥ 45%

These entries and their values trace back to patent US20160297889A1.
